The values you see were collected from the supplement of paper PMC10724198.

# Test system: Saccharomyces cerevisiae
# protocol-description: protein stability index of tFT-peptide fusion (C-terminal peptide) (PSI (0-1 scale)); higher = more stable (slower turnover)
# recorded-conditions: genetic background: wild type; temperature: 30 C
parameter: protein stability index

residue-sequence | parameter | measurement
SFTYVFFSLSRR | protein stability index | 0.663
SPPSPPPPPPPS | protein stability index | 0.691
LPSPLGSSIFSN | protein stability index | 0.693
VEYVRSGTLVSG | protein stability index | 0.658
DVNSNYNVGEQR | protein stability index | 0.64
LCRVFAGFLSVG | protein stability index | 0.689
PSSCSLLPLCLG | protein stability index | 0.663
KRNLLYNIIVWI | protein stability index | 0.299
GGDRGHVTGEVG | protein stability index | 0.657
CFGFRVFGFVFF | protein stability index | 0.561
NKKKEKKKNEAK | protein stability index | 0.684
LSVLPAFYPRSP | protein stability index | 0.758
VYVLHNVMCSSD | protein stability index | 0.632

* * *

protein stability index values for the sequences below.
# Test system: Saccharomyces cerevisiae
# protocol-description: protein stability index of tFT-peptide fusion (C-terminal peptide) (PSI (0-1 scale)); higher = more stable (slower turnover)
# recorded-conditions: genetic background: wild type; temperature: 30 C

residue-sequence | protein stability index
DLESLTAKLIQG [HCA4 C-terminal 12 aa] | 0.673
DTFIPSTLQSVT [YNL089C C-terminal 12 aa] | 0.678
SILGMQDMWKAT [PEX11 C-terminal 12 aa] | 0.713
SSVKNSVEMTDF [TDA11 C-terminal 12 aa] | 0.698
DSATLVNVHIKR [SPR3 C-terminal 12 aa] | 0.727

* * *

# Tested on: Saccharomyces cerevisiae
# protocol-description: protein stability index of tFT-peptide fusion (C-terminal peptide) (PSI (0-1 scale)); higher = more stable (slower turnover)
# recorded-conditions: genetic background: wild type; temperature: 30 C
protein stability index values for the sequences below.
parameter: protein stability index

residue-sequence | measurement
TESENDALDDLL [TLG2 C-terminal 12 aa] | 0.707
VRVPKKSKKLKK [PDR10 C-terminal 12 aa] | 0.705
DLIKEHSKDIQV [HCH1 C-terminal 12 aa] | 0.691

* * *

# System: Saccharomyces cerevisiae
# protocol-description: protein stability index of tFT-peptide fusion (C-terminal peptide) (PSI (0-1 scale)); higher = more stable (slower turnover)
# recorded-conditions: genetic background: wild type; temperature: 30 C
protein stability index of 0.2 or higher: 1.0. Under 0.2: 0.0.

residue-sequence | class-label
GLWLCRGLVRAW | 1.0
AFFCTLCLFLVS | 1.0
VTLVIYVLVQLT | 0.0
FLYIPLYCRLSF | 0.0
VGCMVVIWVLWG | 0.0
SRNSSRYLLLVS | 1.0
ALEFLLLVCRRL | 1.0
KLKTSHILIKQT | 1.0
KIRGYLMPLTLL | 1.0
FCLLRYPFVGVL | 1.0
ALLYIVVGWSLS | 0.0
GQLIYQHIFILG | 1.0
CFLLSYRWVFLC | 0.0
RWGLCFVHVTMF | 0.0
TYNVMFSPWRKA | 0.0
QGRRKEKAVTLN | 0.0

* * *

# System: Saccharomyces cerevisiae
# protocol-description: protein stability index of tFT-peptide fusion (C-terminal peptide) (PSI (0-1 scale)); higher = more stable (slower turnover)
# recorded-conditions: genetic background: doa10 deletion; temperature: 30 C
protein stability index values for the sequences below.

residue-sequence | protein stability index
RLPFPVVLFLLF | 0.3
FPTLHPAIPYLC | 0.237
FFLLLVSVLSGW | 0.152
FCVGVLFSCLVF | 0.286
LKFSLLLPVQVI | 0.253
SSGAVGLVIVVC | 0.155
FFYVFPFFIFRF | 0.505
PPLPPVCPSPSL | 0.667
SRVHHLWAILVP | 0.18
PVGRSVFFVWFL | 0.352
TALSRLFECFLS | 0.328
LSLVIFIFLYCR | 0.27
LVVFGLVLSLLL | 0.356
SHPAPPSPPPSP | 0.363
LESYGLRDSTSG | 0.65
PLFPLLGLLFFF | 0.472
GELVLVMYGIWV | 0.238
LWERRSRQLTMF | 0.173
FFVFMAKLRTCN | 0.112
RRTTIFDTKEPP | 0.532
IVIFQTAYVVRI | 0.225
IWIHSVGVECTS | 0.315
SQCVVYLSVRFS | 0.326
GRWGGYVGREWG | 0.44
TIKGRLNVRKIE | 0.354
FSPSHMLRIFCY | 0.179
SFGLICFLILCG | 0.173
VWGLGWLVVGVG | 0.165
KERNKISQRKLT | 0.143
IYNIIFKYRTIT | 0.0671
AKVSFYALARQY | 0.323
YRKKIKNIWLRW | 0.444
GLWLCRGLVRAW | 0.253
LLPLLFFFLCLP | 0.462
LARRASCFWVRC | 0.251
ATAVMILCFRWC | 0.287
SPWSIHLILLQV | 0.189
FFATFVPSFLLC | 0.268
SRNSSRYLLLVS | 0.211
VRTFVFLVGYCE | 0.393
QKGLFYCVILYC | 0.148
LVWSGLIVVVGG | 0.176
RFLVVVRFYWRC | 0.168
FSLFYYIHLSVA | 0.0982
GVFISFFFVFRF | 0.354
RNWVVDGWRRFP | 0.17
SVLVSVVLFVRS | 0.126
YFNGLLPLVLVF | 0.0659
FLRWRVWVVVGW | 0.18
MWRWASKCRFSM | 0.231
LLLLRCLWISHA | 0.125
NHKNANAATLIN | 0.268
LWAVGVATDWGG | 0.694
GLCSGTGARWLV | 0.52
ARKWVAVTVTLW | 0.148
YPCRLFVRSLLA | 0.205
YHFSLFFPLSLP | 0.378

* * *

# System: Saccharomyces cerevisiae
# protocol-description: protein stability index of tFT-peptide fusion (C-terminal peptide) (PSI (0-1 scale)); higher = more stable (slower turnover)
# recorded-conditions: genetic background: wild type; temperature: 30 C
parameter: protein stability index

residue-sequence | measured-target | measurement
GCRRYLFLFFGC | Saccharomyces cerevisiae | 0.6
FVCFSFFFPFLL | Saccharomyces cerevisiae | 0.237
GVEGAVGGRRGA | Saccharomyces cerevisiae | 0.703
PPDPPPHASPAP | Saccharomyces cerevisiae | 0.72
WVTQHAMEVGRI | Saccharomyces cerevisiae | 0.712
SWGHTGTLRNDI | Saccharomyces cerevisiae | 0.747
PPPPPSSRPLSN | Saccharomyces cerevisiae | 0.627
PSPPAPFPLVPT | Saccharomyces cerevisiae | 0.607
GRSVGVTMFKNG | Saccharomyces cerevisiae | 0.342
RGVPPPPWTPPP | Saccharomyces cerevisiae | 0.539
VGGGGVGAGVWG | Saccharomyces cerevisiae | 0.653
AGAGRLRGGGVN | Saccharomyces cerevisiae | 0.677
SLYPRALDFGPM | Saccharomyces cerevisiae | 0.692
LCAFLKLFILII | Saccharomyces cerevisiae | 0.239
SWLAQCVVISLL | Saccharomyces cerevisiae | 0.459
VGRGGPGVGGSW | Saccharomyces cerevisiae | 0.736
RLPPRPPPRPPT | Saccharomyces cerevisiae | 0.651
APRFDLVLPHVF | Saccharomyces cerevisiae | 0.721
VKESILVGRYDC | Saccharomyces cerevisiae | 0.709
SSGLALGCPLGA | Saccharomyces cerevisiae | 0.682
LLLFPLPLLPFH | Saccharomyces cerevisiae | 0.686

* * *

# System: Saccharomyces cerevisiae
# protocol-description: protein stability index of tFT-peptide fusion (C-terminal peptide) (PSI (0-1 scale)); higher = more stable (slower turnover)
# recorded-conditions: genetic background: das1 deletion; temperature: 30 C
protein stability index of 0.7 or higher: class 1. Under 0.7: class 0.

residue-sequence | class-label
NKHDLHLRPGTY [YDR098C-A C-terminal 12 aa] | class 0
LGGLLTVLIWFL [KRE1 C-terminal 12 aa] | class 0
SRQFEQNLQIND [SLF1 C-terminal 12 aa] | class 1
FTMSLAHCLMFS [YJL169W C-terminal 12 aa] | class 0
QIVEEWIVSTEA [CLB4 C-terminal 12 aa] | class 0
SFERLLVETIYS [ALG13 C-terminal 12 aa] | class 0
DNTTKHSSNVHT [YER079W C-terminal 12 aa] | class 0
PPVPEVPQEYTQ [TCB3 C-terminal 12 aa] | class 1
NVAAAEASKKGN [YET1 C-terminal 12 aa] | class 1
VFNNISLNFYIQ [YLL020C C-terminal 12 aa] | class 1
QIVNSTPVFTWC [LSB6 C-terminal 12 aa] | class 0
NKHDLHLRPETY [YAR010C C-terminal 12 aa] | class 0
FLILVFVMKKNH [YDR018C C-terminal 12 aa] | class 0
LRRYEEDLFCTF [IES2 C-terminal 12 aa] | class 1
